molecular target: AMPK; test: AMPK activation, enzyme-linked immunosorbent assay; type: biochemical; conditions: Table 5, AMPK activation, ELISA
pEC50: −log10 of the molar value. Where a name gives a salt, the structure may show the parent alone.
PROPERTY: pEC50

Worked cases, answers included:
O=C(NC1CCN(Cc2ccncc2)CC1)c1cc2cc(OC3CCN(Cc4ccc(Cl)cc4)CC3)ccc2s1 [Compound 139, formate salt]	> 7.00
O=C(NC1CCNCC1)c1cc2cc(OC3CCN(c4ccc(C(F)(F)F)cc4)CC3)ccc2s1 [Compound 150]	4.30 to 6.00

Okay, now this compound:
Tell us which pEC50 value is on record for O=C(NC1CCN(Cc2ccccn2)CC1)c1sc2cc(OC3CCN(c4ccc(C(F)(F)F)cc4)CC3)ccc2c1Cl [Compound 153]
6.30 to 7.00
